Reported pKd by item:
# Test Target: r-LvMFBP (XP_027209752.1; methyl farnesoate-binding protein, MFBP)
# Construct: recombinant, E. coli BL21-T1R, HisTALON (His-tag) purified; precursor 215 aa with 16 aa signal peptide, mature 199 aa
# Experimental Details: isothermal titration calorimetry
# Design: species or system Penaeus vannamei
# Measurement Parameters: 20 uM protein, 200 uM ligand, 20 mM Tris-HCl pH 7.5, 30 C
pKd: −log10 of the molar value.

| Compound | pKd |
| --- | --- |
| CC(C)=CCC/C(C)=C/CC/C(C)=C/C(=O)O [FA, farnesoic acid] | 3.20 |
| COC(C)(C)CCCC(C)C/C=C/C(C)=C/C(=O)OC(C)C (centres unmarked) [Met, methoprene] | 4.46 |

Data provenance: paper PMC12256323
